For each entry below, report its IC50 value.
Molecular target: Serotonin Type 1A (5-HT1A) (Bos taurus)
Construct: from tissue
Sequence (F6Q2H9 1-422): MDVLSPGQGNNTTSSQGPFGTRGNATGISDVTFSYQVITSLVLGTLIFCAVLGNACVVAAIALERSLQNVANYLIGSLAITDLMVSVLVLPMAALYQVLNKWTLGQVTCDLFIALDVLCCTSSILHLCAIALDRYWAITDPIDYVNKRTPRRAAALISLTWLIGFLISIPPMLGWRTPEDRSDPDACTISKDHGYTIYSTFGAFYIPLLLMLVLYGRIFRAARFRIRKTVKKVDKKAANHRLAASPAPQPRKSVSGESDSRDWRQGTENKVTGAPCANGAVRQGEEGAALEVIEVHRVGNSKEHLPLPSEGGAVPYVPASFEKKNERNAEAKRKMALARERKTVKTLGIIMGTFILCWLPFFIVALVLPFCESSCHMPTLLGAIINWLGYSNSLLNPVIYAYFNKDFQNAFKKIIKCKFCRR
Assay: Receptor binding test RB4, [3H] 8-OH-DPAT ligand, 8-OH-DPAT specific binding agent
Conditions: read-out: RB4 IC50
Report the figure in nM without appending any unit label.

INPUT: Return IC50 measured with Serotonin Type 1A (5-HT1A) (Bos taurus) given this compound: CCCCCCCCCC(=O)OC1CCC2(CC(=O)N(CCCCN3CCN(c4nsc5ccccc45)CC3)C(=O)C2)C1 (centres unmarked) [Reference # 12]
OUTPUT: 35.8

INPUT: Also O=C1CC2(CCC(O)C2)CC(=O)N1CCCCN1CCN(c2n[s+]([O-])c3ccccc23)CC1 (centres unmarked) [Reference # 3] , if possible.
OUTPUT: 1850

INPUT: Also O=C1CC2(CCCC2)CC(=O)N1CCCCN1CCN(c2n[s+]([O-])c3ccccc23)CC1 (centres unmarked) [Reference # ii, reference compound] , if possible.
OUTPUT: 1120

====

System: dopaminergic activity
Assay: Inhibition of Apomorphine-Induced (APO) Stereotypy, blockade of dopaminergic activity
Type: in vivo, rats
Conditions: Rattus norvegicus, po; read-out: APO ED50
experimental.readout: ED50 (mg/kg)
Report the figure in mg/kg without appending any unit label.

INPUT: Look at this molecule and give its reported ED50. O=C1CC2(CCCC2)C(O)C(=O)N1CCCCN1CCN(c2nsc3ccccc23)CC1 (stereo not shown) [Reference # 10]
OUTPUT: 26

INPUT: Also O=C1CC2(CCCC2)CC(=O)N1CCCCN1CCN(c2nsc3ccccc23)CC1 [Reference # i] , if possible.
OUTPUT: 13.1

INPUT: Also O=C1CC2(CCCC2)CC(=O)N1CCCCN1CCN(c2n[s+]([O-])c3ccccc23)CC1 (stereo not shown) [Reference # ii, reference compound] , if possible.
OUTPUT: 9.6

====

Biological target: Serotonin Type 1A (5-HT1A) (Bos taurus)
Construct: from tissue
Assay: Receptor binding test RB4, [3H] 8-OH-DPAT ligand, 8-OH-DPAT specific binding agent
experimental.readout: pIC50
Note: pIC50 values are expressed as the negative base-10 logarithm of concentration in M.

INPUT: Return pIC50 measured with Serotonin Type 1A (5-HT1A) (Bos taurus) given this compound: c1ccc2c(N3CCNCC3)nsc2c1 [Reference # 14, 4-(1,2-benzisothiazol-3-yl)1H-piperazine]
OUTPUT: 6.75

====

Molecular target: Serotonin Type 2 (5-HT2) (Rattus norvegicus)
Construct: from tissue; frontal cortex in the cited method
Sequence (P14842 whole entry): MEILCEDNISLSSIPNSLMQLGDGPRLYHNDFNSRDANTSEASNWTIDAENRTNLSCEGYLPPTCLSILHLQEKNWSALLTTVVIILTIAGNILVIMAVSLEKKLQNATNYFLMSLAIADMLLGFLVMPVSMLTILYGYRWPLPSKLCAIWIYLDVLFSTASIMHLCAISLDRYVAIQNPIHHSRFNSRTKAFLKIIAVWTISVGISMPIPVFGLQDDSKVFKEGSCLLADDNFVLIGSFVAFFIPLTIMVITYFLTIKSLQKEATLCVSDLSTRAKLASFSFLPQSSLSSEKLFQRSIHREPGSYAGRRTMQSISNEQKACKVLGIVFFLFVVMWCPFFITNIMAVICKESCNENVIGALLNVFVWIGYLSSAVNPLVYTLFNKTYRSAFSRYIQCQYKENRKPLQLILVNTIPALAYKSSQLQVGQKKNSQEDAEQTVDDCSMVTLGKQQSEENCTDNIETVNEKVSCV
Assay: Receptor binding test RB3, [3H] Spiperone ligand, D-Lysergide specific binding agent
For each entry below, report its pIC50 value.
Note: pIC50 values are expressed as the negative base-10 logarithm of concentration in M.

INPUT: Look at this compound and give its reported pIC50. c1ccc2c(N3CCNCC3)nsc2c1 [Reference # 14, 4-(1,2-benzisothiazol-3-yl)1H-piperazine]
OUTPUT: 6.96

INPUT: Also CCCCCCCCCC(=O)OC1CCC2(CC(=O)N(CCCCN3CCN(c4nsc5ccccc45)CC3)C(=O)C2)C1 (stereo not shown) [Reference # 12] , if possible.
OUTPUT: 7.99

INPUT: Also O=C1CCC2(C1)CC(=O)N(CCCCN1CCN(c3nsc4ccccc34)CC1)C(=O)C2 [Reference # 5] , if possible.
OUTPUT: 8.53

INPUT: Also O=C1CC2(CCC(O)C2)CC(=O)N1CCCCN1CCN(c2n[s+]([O-])c3ccccc23)CC1 (stereo not shown) [Reference # 3] , if possible.
OUTPUT: 5.83
